species on record: Rattus norvegicus; experiment: Open TG-GATES - Regimen: Daily Repeat; format: toxicity, organism-based, Sprague-Dawley; set-up: regimen Daily Repeat, gender Male, age 6 weeks; details: in vivo, po, 0 mg/kg, […], tissue Blood, route gavage, dose level Control, time 7 day
measure.name: MCHC (%)
Numeric only. Scale: %

Please review the entries below; each comes with its answer.
> print(dat)
                                   compound  reported.measurement
1               Cc1cccc(Nc2ccccc2C(=O)O)c1C                  35.5
2  CN(C)[C@@H]1C(O)=C(C(N)=O)C(=O)[C@@]2(O)C(O)=C3C(=O)c4c(O)cccc4[C@@](C)(O)[C@H]3C[C@@H]12                  33.5
3  C#C[C@]1(O)CC[C@H]2[C@@H]3CCC4=Cc5oncc5C[C@]4(C)[C@H]3CC[C@@]21C                  33.9
4  C1CCC(C(CC2CCCCN2)C2CCCCC2)CC1 (centres undefined)                  35.2
5  CCOC(=O)[C@H](CCc1ccccc1)N[C@@H](C)C(=O)N1CCC[C@H]1C(=O)O                  33.3
6  CN1C(C(=O)Nc2ccccn2)=C(O)c2sc(Cl)cc2S1(=O)=O                  33.7

Fill in the blank: the reported MCHC of Clc1c(Cl)c(Cl)c(Cl)c(Cl)c1Cl is ____.
33.4

Query CC(CN1c2ccccc2Sc2ccccc21)N(C)C (centres undefined) next
33

Query CC(=O)Nc1nnc(S(N)(=O)=O)s1 [ACETAZOLAMIDE] next
35.8

---

Reported RALB is given for each of the following compounds.
species: Rattus norvegicus; test: Open TG-GATES - Regimen: Single; type: toxicity, organism-based, Sprague-Dawley; parameters: regimen Single, gender Male, age 6 weeks; conditions: in vivo, po, 0 mg/kg, 9 h, tissue Plasma, route gavage, dose level Control
Numeric only. Scale: g/dL

compound	RALB / g/dL
CN(C)[C@@H]1C(O)=C(C(N)=O)C(=O)[C@@]2(O)C(O)=C3C(=O)c4c(O)cccc4[C@@](C)(O)[C@H]3C[C@@H]12	3.8
CC(=O)Nc1nnc(S(N)(=O)=O)s1 [ACETAZOLAMIDE]	3.1
CC(CN1c2ccccc2Sc2ccccc21)N(C)C (stereo not given)	3

Fill in the blank: the reported RALB of CCOC(=O)[C@H](CCc1ccccc1)N[C@@H](C)C(=O)N1CCC[C@H]1C(=O)O is ____.
3.8

Query C1CCC(C(CC2CCCCN2)C2CCCCC2)CC1 (stereo not given) next
3

Query Cc1cccc(Nc2ccccc2C(=O)O)c1C next
3.5

Query Clc1c(Cl)c(Cl)c(Cl)c(Cl)c1Cl next
3.3

Query C#C[C@]1(O)CC[C@H]2[C@@H]3CCC4=Cc5oncc5C[C@]4(C)[C@H]3CC[C@@]21C next
2.9

Query COc1cc([C@@H]2c3cc4c(cc3[C@@H](O[C@@H]3O[C@@H]5CO[C@@H](C)O[C@H]5[C@H](O)[C@H]3O)[C@H]3COC(=O)[C@H]23)OCO4)cc(OC)c1O [ETOPOSIDE] next
3.4

Query CN1C(C(=O)Nc2ccccn2)=C(O)c2sc(Cl)cc2S1(=O)=O next
3.5

---

Reported DBIL is given for each of the following molecules.
species on record: Rattus norvegicus; assay: Open TG-GATES - Regimen: Daily Repeat; format: toxicity, organism-based, Sprague-Dawley; set-up: regimen Daily Repeat, gender Male, age 6 weeks; details: in vivo, po, 0 mg/kg, 72 h, tissue Plasma, route gavage, dose level Control, time 3 day
Numeric only. Scale: mg/dL

Fill in the blank: the reported DBIL of CN(C)[C@@H]1C(O)=C(C(N)=O)C(=O)[C@@]2(O)C(O)=C3C(=O)c4c(O)cccc4[C@@](C)(O)[C@H]3C[C@@H]12 [TETRACYCLINE] is ____.
0.008

Query CN1C(C(=O)Nc2ccccn2)=C(O)c2sc(Cl)cc2S1(=O)=O [LORNOXICAM] next
0.094

Query Cc1cccc(Nc2ccccc2C(=O)O)c1C [MEFENAMIC ACID] next
0.088

Query C1CCC(C(CC2CCCCN2)C2CCCCC2)CC1 (stereo not given) [PERHEXILINE] next
0

Query CCOC(=O)[C@H](CCc1ccccc1)N[C@@H](C)C(=O)N1CCC[C@H]1C(=O)O next
0.022

Query CC(CN1c2ccccc2Sc2ccccc21)N(C)C (stereo not given) [PROMETHAZINE] next
0

---

organism: Rattus norvegicus; test: Open TG-GATES - Regimen: Single; assay type: toxicity, organism-based, Sprague-Dawley; design: regimen Single, gender Male, age 6 weeks; details: in vivo, po, 0 mg/kg, 6 h, tissue Plasma, route gavage, dose level Control
measure.name: LDH (IU/L)
Numeric only. Scale: IU/L

Please review the entries below; each comes with its answer.
molecule	reported.measurement
Clc1c(Cl)c(Cl)c(Cl)c(Cl)c1Cl [PERCHLOROBENZENE]	216.4
Cc1cccc(Nc2ccccc2C(=O)O)c1C [MEFENAMIC ACID]	172

Fill in the blank: the reported LDH of COc1cc([C@@H]2c3cc4c(cc3[C@@H](O[C@@H]3O[C@@H]5CO[C@@H](C)O[C@H]5[C@H](O)[C@H]3O)[C@H]3COC(=O)[C@H]23)OCO4)cc(OC)c1O [ETOPOSIDE] is ____.
65.8

Query CN(C)[C@@H]1C(O)=C(C(N)=O)C(=O)[C@@]2(O)C(O)=C3C(=O)c4c(O)cccc4[C@@](C)(O)[C@H]3C[C@@H]12 [TETRACYCLINE] next
77.6

---

species on record: Rattus norvegicus; experiment: Open TG-GATES - Regimen: Daily Repeat; assay type: toxicity, organism-based, Sprague-Dawley; design: regimen Daily Repeat, gender Male, age 6 weeks; settings: in vivo, po, 0 mg/kg, […], tissue Plasma, route gavage, dose level Control, time 7 day
measure.name: gamma-GTP (IU/L)
Numeric only. Scale: IU/L

> print(dat)
                                   compound  reported.measurement
1  CC(CN1c2ccccc2Sc2ccccc21)N(C)C (stereo not given) [PROMETHAZINE]                     2
2  Cc1cccc(Nc2ccccc2C(=O)O)c1C [MEFENAMIC ACID]                     1
3  CC(=O)Nc1nnc(S(N)(=O)=O)s1 [ACETAZOLAMIDE]                   1.6

Fill in the blank: the reported gamma-GTP of C#C[C@]1(O)CC[C@H]2[C@@H]3CCC4=Cc5oncc5C[C@]4(C)[C@H]3CC[C@@]21C [DANAZOL] is ____.
1.6

Query Clc1c(Cl)c(Cl)c(Cl)c(Cl)c1Cl [PERCHLOROBENZENE] next
1

---

Reported gamma-GTP is given for each of the following compounds.
species on record: Rattus norvegicus; test: Open TG-GATES - Regimen: Daily Repeat; assay type: toxicity, organism-based, Sprague-Dawley; design: regimen Daily Repeat, gender Male, age 6 weeks; details: in vivo, po, 0 mg/kg, […], tissue Plasma, route gavage, dose level Control, time 7 day
Numeric only. Scale: IU/L

Please review the entries below; each comes with its answer.
> print(dat)
                                   compound  units.symbol  reported.measurement
1  C1CCC(C(CC2CCCCN2)C2CCCCC2)CC1 (centres undefined) [PERHEXILINE]          IU/L                   1.6
2  CCOC(=O)[C@H](CCc1ccccc1)N[C@@H](C)C(=O)N1CCC[C@H]1C(=O)O          IU/L                   1.6
3  CN1C(C(=O)Nc2ccccn2)=C(O)c2sc(Cl)cc2S1(=O)=O [LORNOXICAM]          IU/L                   1.2

Fill in the blank: the reported gamma-GTP of CN(C)[C@@H]1C(O)=C(C(N)=O)C(=O)[C@@]2(O)C(O)=C3C(=O)c4c(O)cccc4[C@@](C)(O)[C@H]3C[C@@H]12 [TETRACYCLINE] is ____.
1

---

Reported Cl is given for each of the following compounds.
species: Rattus norvegicus; assay: Open TG-GATES - Regimen: Single; assay type: toxicity, organism-based, Sprague-Dawley; set-up: regimen Single, gender Male, age 6 weeks; details: in vivo, po, 0 mg/kg, 24 h, tissue Plasma, route gavage, dose level Control
Numeric only. Scale: meq/L

Fill in the blank: the reported Cl of CC(CN1c2ccccc2Sc2ccccc21)N(C)C (stereo not given) is ____.
106.6

Query Cc1cccc(Nc2ccccc2C(=O)O)c1C next
102.8

Query Clc1c(Cl)c(Cl)c(Cl)c(Cl)c1Cl next
103

Query CCOC(=O)[C@H](CCc1ccccc1)N[C@@H](C)C(=O)N1CCC[C@H]1C(=O)O next
106.4

Query CC(=O)Nc1nnc(S(N)(=O)=O)s1 [ACETAZOLAMIDE] next
105.8

Where these numbers come from: ChEMBL document CHEMBL3885861
